- target of assay: Lanosterol synthase (Rattus norvegicus, UniProt P48450)
- experiment: In vitro inhibitory activity of the compound against rat microsomal 2,3-Oxidosqualene lanosterol cyclase (OSC)

{"compound string": "O=C(C1CCN(c2ccncc2)CC1)N1CCN(S(=O)(=O)c2ccccc2)CC1", "unit of measurement": "nM", "IC50": 326}
{"compound string": "O=C(C1CCN(c2ccncc2)CC1)N1CCN(S(=O)(=O)c2ccc(Br)cc2)CC1", "unit of measurement": "nM", "IC50": 228}
{"compound string": "O=C(c1ccc(C(F)(F)F)cc1)N1CCC(=Cc2ccc(C3=NCCO3)cc2)CC1", "unit of measurement": "nM", "IC50": 90}

###

- target of assay: Lanosterol synthase (Rattus norvegicus)
- Sequence (P48450 whole entry): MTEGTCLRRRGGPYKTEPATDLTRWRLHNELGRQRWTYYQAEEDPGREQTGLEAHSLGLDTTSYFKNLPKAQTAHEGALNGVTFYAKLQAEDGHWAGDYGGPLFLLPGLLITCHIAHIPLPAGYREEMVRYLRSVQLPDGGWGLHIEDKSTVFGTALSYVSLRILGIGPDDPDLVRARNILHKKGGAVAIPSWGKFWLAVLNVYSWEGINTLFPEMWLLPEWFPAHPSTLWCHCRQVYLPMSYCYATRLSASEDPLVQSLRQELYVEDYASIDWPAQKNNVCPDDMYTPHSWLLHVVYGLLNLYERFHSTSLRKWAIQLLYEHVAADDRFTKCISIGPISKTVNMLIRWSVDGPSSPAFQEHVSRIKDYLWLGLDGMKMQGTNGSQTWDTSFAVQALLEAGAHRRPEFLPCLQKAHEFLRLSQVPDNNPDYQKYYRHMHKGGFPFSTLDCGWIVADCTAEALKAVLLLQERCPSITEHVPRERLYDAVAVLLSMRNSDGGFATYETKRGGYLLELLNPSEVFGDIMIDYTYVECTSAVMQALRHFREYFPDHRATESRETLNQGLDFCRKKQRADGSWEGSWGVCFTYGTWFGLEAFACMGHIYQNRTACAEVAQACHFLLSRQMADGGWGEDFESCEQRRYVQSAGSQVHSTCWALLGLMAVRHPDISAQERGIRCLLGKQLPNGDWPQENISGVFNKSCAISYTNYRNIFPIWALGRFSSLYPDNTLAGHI
- experiment: Compound was tested for its inhibition against rat OSC enzyme

{"compound string": "O=C(C1CCN(c2ccncn2)CC1)N1CCN(S(=O)(=O)c2ccc(Br)cc2)CC1", "unit of measurement": "nM", "IC50": 116}
{"compound string": "Cc1nccc(N2CCC(C(=O)N3CCN(S(=O)(=O)c4ccc(Br)cc4)CC3)CC2)n1", "unit of measurement": "nM", "IC50": 398}

###

- experiment: Compound was tested for its acid dissociation constant
- Assay type: ADME
The following molecules are listed with their measured pKa values.
attribute measured: pKa

{"molecule": "O=C(C1CCN(c2ccncc2)CC1)N1CCN(S(=O)(=O)c2ccc(I)cc2)CC1", "recorded number": 9.2}
{"molecule": "Cc1nccc(N2CCC(C(=O)N3CCN(S(=O)(=O)c4ccc(Br)cc4)CC3)CC2)n1", "recorded number": 7.2}
{"molecule": "O=C(c1ccc(C(F)(F)F)cc1)N1CCC(=Cc2ccc(C3=NCCO3)cc2)CC1", "recorded number": 4.7}
{"molecule": "O=C(C1CCN(c2ccncc2)CC1)N1CCN(S(=O)(=O)c2ccc(Br)cc2)CC1", "recorded number": 9.2}
{"molecule": "O=C(C1CCN(c2ccncn2)CC1)N1CCN(S(=O)(=O)c2ccc(Br)cc2)CC1", "recorded number": 6.1}
{"molecule": "O=C(c1ccc(Cl)cc1)c1ccc(OC2CN3CCC2CC3)cc1 (stereo unspecified)", "recorded number": 9.1}

// data source = ChEMBL document CHEMBL1133564
